Molecular target: GPR84 (Homo sapiens)
Sequence (Q9NQS5 whole entry): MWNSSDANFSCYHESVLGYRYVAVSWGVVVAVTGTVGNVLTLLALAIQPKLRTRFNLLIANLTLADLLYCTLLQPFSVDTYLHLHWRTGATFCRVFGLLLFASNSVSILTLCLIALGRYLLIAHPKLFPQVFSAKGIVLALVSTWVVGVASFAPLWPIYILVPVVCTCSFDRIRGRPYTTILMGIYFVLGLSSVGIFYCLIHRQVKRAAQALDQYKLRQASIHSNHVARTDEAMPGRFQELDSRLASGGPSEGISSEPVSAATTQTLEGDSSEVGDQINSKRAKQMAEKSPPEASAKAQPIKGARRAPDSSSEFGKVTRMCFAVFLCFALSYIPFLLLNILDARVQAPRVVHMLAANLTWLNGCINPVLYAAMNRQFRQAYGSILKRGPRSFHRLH
Assay: GPR84 antagonistic activity, calcium flux (Fluo-4) assay with agonist 6-OAU
Format: cell-based
Design: expressed in transfected cells; host or cells: HEK293
Settings: IC50, HEK293 cells with GPR84 and Gα16; Fluo-4 calcium signal; agonist 6-OAU around EC80
pIC50: −log10 of the molar value.

>  <Compound>
COc1cccc2c1Sc1ccccc1C=C2OP(=O)(O)OCC1CC2CCC1C2 (stereo not drawn) [LSX444-2]

>  <pIC50>
6.00 to 7.00

$$$$
>  <Compound>
CC/C=C\CCCCOP(=O)(O)OC1=Cc2ccccc2Sc2c(OC)cccc21 [LSX446]

>  <pIC50>
6.00 to 7.00

$$$$
>  <Compound>
COc1cccc2c1Sc1ccccc1C=C2OP(=O)(O)OC [LSX350]

>  <pIC50>
5.00 to 6.00

$$$$

* * *

Target: GPR84 (Homo sapiens)
Assay: GPR84 antagonistic activity, calcium flux (Fluo-4) assay with agonist 6-OAU
Type: cell-based
Set-up: expressed in transfected cells; host or cells: HEK293
Conditions: IC50, HEK293 cells with GPR84 and Gα16; Fluo-4 calcium signal; agonist 6-OAU around EC80
Description: The human GPR84 cell line was obtained by transfecting a HEK293 cell line with a plasmid encoding GPR84 and Gα16 proteins. Fluorescent dye Fluo-4AM was purchased from Invitrogen. Intracellular Ca^2+ ion is a very important second messenger of G protein-coupled receptor signaling pathway. […] Fluo-4 is a Ca^2+ ion-specific fluorescent probe that binds quantitatively to Ca^2+ ions and emits fluorescence. […]
pIC50: −log10 of the molar value.

>  <Compound>
COc1cccc2c1Sc1ccccc1C=C2OP(=O)(O)OCCc1ccccc1

>  <pIC50>
5.00 to 6.00

$$$$
>  <Compound>
COc1cccc2c1Sc1ccccc1C=C2OP(=O)(O)OCCCNC(=O)CC[C@@H](C)[C@H]1CC[C@H]2[C@@H]3[C@H](O)C[C@@H]4C[C@H](O)CC[C@]4(C)[C@H]3C[C@H](O)[C@]12C

>  <pIC50>
5.00 to 6.00

$$$$
>  <Compound>
CCCCCCCCOP(=O)(O)OC1=Cc2c(Cl)cccc2Sc2ccccc21

>  <pIC50>
6.00 to 7.00

$$$$
>  <Compound>
CC1CC(C(C)(C)C)C(OP(=O)(O)OC2=Cc3c(Cl)cccc3Sc3ccccc32)C(C(C)(C)C)C1 (stereo not drawn)

>  <pIC50>
5.00 to 6.00

$$$$
>  <Compound>
COc1cccc2c1Sc1ccccc1C=C2OP(=O)(O)O[C@@H]1CC[C@@]2(C)C(C1)C[C@@H](O)[C@H]1[C@@H]3CC[C@H]([C@H](C)CCC(=O)O)[C@@]3(C)CC[C@@H]12 (stereo partly drawn)

>  <pIC50>
6.00 to 7.00

$$$$
>  <Compound>
CC1(C)[C@H]2CC[C@]1(C)[C@H](OP(=O)(O)OC1=Cc3c(Cl)cccc3Sc3ccccc31)C2 (racemic) [LSX476d]

>  <pIC50>
6.00 to 7.00

$$$$
>  <Compound>
COC(=O)CCCCCCCOP(=O)(O)OC1=Cc2ccccc2Sc2c(OC)cccc21

>  <pIC50>
5.00 to 6.00

$$$$
>  <Compound>
CC1(C)[C@@H]2CC[C@@](C)(C2)[C@@H]1OP(=O)(O)OC1=Cc2ccccc2Oc2ccccc21 [LSX426j]

>  <pIC50>
5.00 to 6.00

$$$$
>  <Compound>
COc1cccc2c1Sc1ccccc1C=C2OP(=O)(O)OC1CCCCC1C (stereo not drawn)

>  <pIC50>
5.00 to 6.00

$$$$
>  <Compound>
CC1(C)[C@H]2CC[C@]1(C)[C@H](OP(=O)(O)OC1=Cc3ccccc3Sc3ccccc31)C2 [LSX442a]

>  <pIC50>
6.00 to 7.00

$$$$
>  <Compound>
COc1cccc2c1Sc1ccccc1C=C2OP(=O)(O)OCCCCCCCCF

>  <pIC50>
5.00 to 6.00

$$$$
>  <Compound>
CC1(C)[C@H]2CC[C@]1(C)[C@H](OP(=O)(O)OC1=Cc3c(F)cccc3Sc3ccccc31)C2 [LSX460a]

>  <pIC50>
6.00 to 7.00

$$$$
>  <Compound>
COc1cccc2c1Sc1ccccc1C=C2OP(=O)(O)O[C@@H]1C[C@H](C)CC[C@H]1C(C)C [LSX474a]

>  <pIC50>
> 7.00

$$$$
>  <Compound>
COc1cccc2c1Sc1ccccc1C=C2OP(=O)(O)OC12CC3CC(C)(CC(C)(C3)C1)C2

>  <pIC50>
6.00 to 7.00

$$$$
>  <Compound>
CC1(C)[C@@H]2CC[C@@](C)(C2)[C@@H]1OP(=O)(O)OC1=Cc2ccccc2Sc2c(OC(F)(F)F)cccc21 [LSX526j]

>  <pIC50>
> 7.00

$$$$
>  <Compound>
COc1cccc2c1Sc1ccccc1C=C2OP(=O)(O)O[C@@H]1CC[C@@]2(C)C(CC[C@H]3[C@@H]4CC[C@H]([C@H](C)CCC(=O)O)[C@@]4(C)CC[C@@H]32)C1 (stereo partly drawn)

>  <pIC50>
6.00 to 7.00

$$$$
>  <Compound>
CC1(C)[C@@H]2CC[C@@](C)(C2)[C@@H]1OP(=O)(O)OC1=Cc2ccccc2Sc2ccccc21 [LSX442j]

>  <pIC50>
5.00 to 6.00

$$$$
>  <Compound>
COc1cccc2c1Sc1ccccc1C=C2OP(=O)(O)OC12CC3CC(CC(C3)C1)C2 [LSX470a]

>  <pIC50>
6.00 to 7.00

$$$$
>  <Compound>
COc1cccc2c1Sc1ccccc1C=C2OP(=O)(O)O[C@H]1C[C@@H](C)CC[C@@H]1C(C)C [LSX474b]

>  <pIC50>
> 7.00

$$$$
>  <Compound>
COc1cccc2c1Sc1ccccc1C=C2OP(=O)(O)OC12CC3CC(C1)C(Nc1ncnc4[nH]ccc14)C(C3)C2 (stereo not drawn)

>  <pIC50>
> 7.00

$$$$
>  <Compound>
CCCCCCOP(=O)(O)OC1=Cc2ccccc2Sc2c(OC)cccc21

>  <pIC50>
6.00 to 7.00

$$$$
>  <Compound>
CC1(C)[C@@H]2CC[C@@](C)(C2)[C@@H]1OP(=O)(O)OC1=Cc2c(F)cccc2Sc2ccccc21 [LSX460j]

>  <pIC50>
6.00 to 7.00

$$$$
>  <Compound>
COc1cccc2c1Sc1ccccc1C=C2OP(=O)(O)OC1C(C)CCCC1C (stereo not drawn)

>  <pIC50>
5.00 to 6.00

$$$$
>  <Compound>
CC1(C)[C@@H]2CC[C@@]1(C)[C@@H](OP(=O)(O)OC1=Cc3c(Cl)cccc3Sc3ccccc31)C2 [LSX476c]

>  <pIC50>
6.00 to 7.00

$$$$
>  <Compound>
CC1(C)[C@H]2CC[C@]1(C)[C@H](OP(=O)(O)OC1=Cc3ccccc3Sc3c(OC(F)(F)F)cccc31)C2 [LSX526a]

>  <pIC50>
6.00 to 7.00

$$$$
>  <Compound>
COc1cccc2c1Sc1ccccc1C=C2OP(=O)(O)OCCCCCCCCBr

>  <pIC50>
6.00 to 7.00

$$$$
>  <Compound>
CCCCCCCCCOP(=O)(O)OC1=Cc2ccccc2Sc2c(OC)cccc21

>  <pIC50>
6.00 to 7.00

$$$$
>  <Compound>
COc1cccc2c1Sc1ccccc1C=C2OP(=O)(O)OC1C2CC3CC(C2)CC1C3 (stereo not drawn) [LSX470b]

>  <pIC50>
6.00 to 7.00

$$$$
>  <Compound>
COc1cccc2c1Sc1ccccc1C=C2OP(=O)(O)OC1CCC(C(C)(C)C)CC1 (stereo not drawn)

>  <pIC50>
6.00 to 7.00

$$$$
>  <Compound>
CC1(C)[C@H]2CC[C@]1(C)[C@@H](OP(=O)(O)OC1=Cc3c(Cl)cccc3Sc3ccccc31)C2 [LSX476h]

>  <pIC50>
6.00 to 7.00

$$$$
